The entries below come with measured intracellular M.tb growth inhibition values attached.
- System: THP-1 macrophages infected with Mycobacterium tuberculosis H37Rv
- Assay Summary: intracellular M.tb growth inhibition relative to DMSO (0) and 4 uM bedaquiline (100); higher = stronger inhibition of intracellular bacterial growth
- Recorded Conditions: 10 µM; 4 days
Counter-ions that a name gives are not always drawn.
Measured Metric: intracellular M.tb growth inhibition

>>> result("NC(=O)c1sc2c([N+](=O)[O-])cc(C(F)(F)F)cc2[n+]1[O-] [Cyclapolin 9]")
"-65.9%"
>>> result("O=c1oc2c(O)c(O)cc3c(=O)oc4c(O)c(O)cc1c4c23 [Ellagic acid]")
"-20.9%"
>>> result("C[C@@H]1CCN(C(=O)CC#N)C[C@@H]1N(C)c1ncnc2[nH]ccc12")
"-17.5%"
>>> result("O=c1cc(-c2cccc3c2Sc2ccccc2S3)oc(N2CCOCC2)c1")
"3.07%"
>>> result("C=CCn1c(=O)c2cnc(Nc3ccc(N4CCN(C)CC4)cc3)nc2n1-c1cccc(C(C)(C)O)n1")
"-188%"
>>> result("CC#CC(=O)Nc1cc2c(Nc3ccc(F)c(Cl)c3)ncnc2cn1")
"-68.3%"
>>> result("S=C(NCc1ccc2c(c1)OCO2)N1CCN(c2ncnc3c2oc2ccccc23)CC1")
"-35.5%"
>>> result("CC(C)(C)c1cc(NC(=O)Nc2ccc(-c3cn4c(n3)sc3cc(OCCN5CCOCC5)ccc34)cc2)no1")
"85.7%"
>>> result("CN(C)C/C=C/C(=O)Nc1cc2c(Nc3ccc(F)c(Cl)c3)ncnc2cc1O[C@H]1CCOC1")
"18.3%"
>>> result("Clc1ccc(Nc2nnc(Cc3ccncc3)c3ccccc23)cc1 [Vatalanib dihydrochloride]")
"-2.9%"
>>> result("CC1=C(C(=O)Nc2cc3cn[nH]c3cc2F)C(c2ccc(C(F)(F)F)cc2)CC(=O)N1 (configuration not stated)")
"-101%"
>>> result("CN(C)S(=O)(=O)c1ccc2c(c1)/C(=C/c1cc3c([nH]1)CCCC3)C(=O)N2")
"-51.7%"
>>> result("O=S(=O)(c1cccc2c(Cl)cccc12)N1CCCNCC1 [ML 9 hydrochloride]")
"-14%"
>>> result("Cc1cc(Nc2nc(N[C@@H](C)c3ccc(F)cc3)c(C#N)cc2F)n[nH]1")
"-124%"
>>> result("COc1cc2nccc(Oc3ccc(NC(=O)Nc4ccc(F)cc4F)c(F)c3)c2cc1OC")
"25.2%"
>>> result("CS(=O)(=O)N1CCN(Cc2cc3nc(-c4cccc5[nH]ncc45)nc(N4CCOCC4)c3s2)CC1 [GDC-0941 bismesylate]")
"56%"
>>> result("O=C(Nc1cccc(Cl)c1)Nc1ncc(CCNc2ncnc3ccsc23)s1")
"-53.6%"
>>> result("CC(C)N(CCC(=O)c1ccc2ccccc2c1)Cc1ccccc1")
"22.8%"
>>> result("COc1cc(Nc2c(C#N)cnc3cc(OCCCN4CCN(C)CC4)c(OC)cc23)c(Cl)cc1Cl [Bosutinib]")
"109%"
>>> result("Nc1nc(Nc2ccc(S(N)(=O)=O)cc2)nn1C(=S)Nc1c(F)cccc1F [Cdk1/2 Inhibitor III]")
"-193%"
>>> result("Oc1ccc(-c2nc(-c3ccc(F)cc3)c(-c3ccncc3)[nH]2)cc1")
"8.19%"
>>> result("Cc1ccccc1C(=O)c1ccc(Nc2ccc(Br)cc2N)cc1Cl")
"20.1%"
